Biological target: hMC1r (Homo sapiens)
Sequence (Q01726 whole entry): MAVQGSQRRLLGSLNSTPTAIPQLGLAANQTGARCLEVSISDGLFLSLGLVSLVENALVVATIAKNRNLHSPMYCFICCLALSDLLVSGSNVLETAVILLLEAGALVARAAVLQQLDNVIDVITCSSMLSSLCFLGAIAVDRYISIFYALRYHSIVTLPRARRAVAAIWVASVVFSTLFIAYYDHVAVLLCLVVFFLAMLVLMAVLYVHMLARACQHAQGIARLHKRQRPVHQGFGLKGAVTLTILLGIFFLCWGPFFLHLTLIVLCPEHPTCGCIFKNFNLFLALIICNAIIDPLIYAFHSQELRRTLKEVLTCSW
Experiment: Assay for agonist activity: cAMP accumulation in HBL melanoma cells
Assay type: cell-based
Set-up: endogenous in cells; host or cells: HBL human melanoma cells
Conditions: HBL, compared to NDP-α-MSH as 100%, read-out: MC-1 Emax (average; cAMP HBL)

substanceSmiles	resultUnits	Emax
CCCCCC(=O)N[C@H]1CCC(=O)NCC[C@@H](C(=O)N[C@@H](Cc2c[nH]c3ccccc23)C(N)=O)NC(=O)[C@H](CCCNC(=N)N)NC(=O)[C@@H](Cc2ccccc2)NC(=O)[C@H](Cc2c[nH]cn2)NC1=O	%	90
CCCC(=O)N[C@H]1CCC(=O)NCC[C@@H](C(=O)N[C@@H](Cc2c[nH]c3ccccc23)C(N)=O)NC(=O)[C@H](CCCNC(=N)N)NC(=O)[C@@H](Cc2ccccc2)NC(=O)[C@H](Cc2c[nH]cn2)NC1=O	%	91
CCCC[C@H](NC(C)=O)C(=O)N[C@H]1CCC(=O)NCC[C@@H](C(=O)N[C@@H](CCCCN)C(N)=O)NC(=O)[C@H](CCCNC(=N)N)NC(=O)[C@@H](Cc2ccccc2)NC(=O)[C@H](Cc2c[nH]cn2)NC1=O	%	91
N=C(N)NCCC[C@@H]1NC(=O)[C@@H](Cc2ccccc2)NC(=O)[C@H](Cc2c[nH]cn2)NC(=O)[C@@H](NC(=O)CC2CCCCC2)CCC(=O)NCC[C@@H](C(=O)N[C@@H](Cc2c[nH]c3ccccc23)C(N)=O)NC1=O	%	85
CCCC[C@H](NC(C)=O)C(=O)N[C@H]1CCC(=O)NCC[C@@H](C(=O)N[C@@H](Cc2c[nH]c3ccccc23)C(N)=O)NC(=O)[C@H](CCCNC(=N)N)NC(=O)[C@@H](Cc2ccccc2)NC(=O)[C@H](CCCNC(N)=O)NC1=O	%	97
CCCC[C@H](NC(C)=O)C(=O)N[C@H]1CCC(=O)NCC[C@@H](C(=O)N[C@@H](Cc2ccc3ccccc3c2)C(N)=O)NC(=O)[C@H](CCCNC(=N)N)NC(=O)[C@@H](Cc2ccccc2)NC(=O)[C@H](Cc2c[nH]cn2)NC1=O	%	83
CCCC[C@H](NC(C)=O)C(=O)N[C@H]1CCC(=O)NCC[C@@H](C(N)=O)NC(=O)[C@H](CCCNC(=N)N)NC(=O)[C@@H](Cc2ccccc2)NC(=O)[C@H](Cc2c[nH]cn2)NC1=O	%	85
CCCC[C@H](NC(C)=O)C(=O)N[C@H]1CCC(=O)NC[C@@H](C(=O)N[C@@H](Cc2c[nH]c3ccccc23)C(C)=O)NC(=O)[C@H](CCCNC(=N)N)NC(=O)[C@@H](Cc2ccccc2)NC(=O)[C@H](Cc2c[nH]cn2)NC1=O	%	81

---

Listing: Emax of selected compounds
Biological target: hMC1r (Homo sapiens)
Experiment: Assay for agonist activity: cAMP accumulation in HBL melanoma cells
Type: cell-based
Design: endogenous in cells; host or cells: HBL human melanoma cells
Conditions: HBL, compared to NDP-α-MSH as 100%, read-out: MC-1 Emax (average; cAMP HBL)
Bridge positions count the residues as written; N and C are the ends. Square brackets hold non-standard residues; d marks the D form. Peptide text beside a SMILES is read from it. dPhe(2-Cl) = N[C@H](Cc1ccccc1Cl)C(=O)O; Nle = CCCC[C@H](N)C(=O)O; Orn = NCCC[C@H](N)C(=O)O; Dab = NCC[C@H](N)C(=O)O

compound	targetOfAssay	Emax
CCCCC(=O)N[C@H]1CCC(=O)NCC[C@@H](C(=O)N[C@@H](Cc2c[nH]c3ccccc23)C(N)=O)NC(=O)[C@H](CCCNC(=N)N)NC(=O)[C@@H](Cc2ccccc2)NC(=O)[C@H](Cc2c[nH]cn2)NC1=O [Example 9.16]	hMC1r (Homo sapiens)	89%
CCCC[C@H](NC(C)=O)C(=O)N[C@H]1CCC(=O)NCC[C@@H](C(N)=O)NC(=O)[C@H](CCCNC(=N)N)NC(=O)[C@@H](Cc2ccccc2Cl)NC(=O)[C@H](CCCN)NC1=O [Example 9.57] (Ac-[Nle]E[Orn][dPhe(2-Cl)]R[Dab]-NH2; lactam 2-6)	hMC1r (Homo sapiens)	88%
CCCC[C@H](NC(C)=O)C(=O)N[C@H]1CCC(=O)NCCC[C@@H](C(=O)N[C@@H](Cc2c[nH]c3ccccc23)C(N)=O)NC(=O)[C@H](CCCNC(=N)N)NC(=O)[C@@H](Cc2ccccc2)NC(=O)[C@H](Cc2c[nH]cn2)NC1=O [Example 9.6]	hMC1r (Homo sapiens)	91%

---

Listing: Emax of selected molecules
Target: hMC1r (Homo sapiens)
Assay: Assay for agonist activity: cAMP accumulation in HBL melanoma cells
Assay type: cell-based
Set-up: endogenous in cells; host or cells: HBL human melanoma cells
Conditions: HBL, compared to NDP-α-MSH as 100%, read-out: MC-1 Emax (average; cAMP HBL)

molecule	Emax [%]
CCCC[C@H](NC(C)=O)C(=O)N[C@H]1CCNC(=O)CCC(=O)NCC[C@@H](C(=O)N[C@@H](Cc2c[nH]c3ccccc23)C(N)=O)NC(=O)[C@H](CCCNC(=N)N)NC(=O)[C@@H](Cc2ccccc2)NC(=O)[C@H](Cc2c[nH]cn2)NC1=O [Example 9.27]	92
CCCCC(NC(C)=O)C(=O)N[C@H]1CCC(=O)NCC[C@@H](C(=O)N[C@@H](CCCCN)C(N)=O)NC(=O)[C@H](CCCNC(=N)N)NC(=O)[C@@H](Cc2ccccc2)NC(=O)[C@H](Cc2c[nH]cn2)NC1=O (some centres unmarked) [Example 9.52]	91
CCCC[C@H](NC(C)=O)C(=O)N[C@H]1CCC(=O)NCC[C@@H](C(=O)N[C@@H](Cc2cccc3ccccc23)C(N)=O)NC(=O)[C@H](CCCNC(=N)N)NC(=O)[C@@H](Cc2ccccc2)NC(=O)[C@H](Cc2c[nH]cn2)NC1=O [Example 9.30]	72
N=C(N)NCCC[C@@H]1NC(=O)[C@@H](Cc2ccccc2)NC(=O)[C@H](Cc2c[nH]cn2)NC(=O)[C@@H](NC(=O)CCc2ccccc2)CCC(=O)NCC[C@@H](C(=O)N[C@@H](Cc2c[nH]c3ccccc23)C(N)=O)NC1=O [Example 9.24]	83
CCCC[C@H](NC(C)=O)C(=O)N[C@H]1CCC(=O)NCC[C@@H](C(=O)N[C@@H](Cc2c[nH]c3ccccc23)C(N)=O)NC(=O)[C@H](CCCNC(=N)N)NC(=O)[C@@H](Cc2ccccc2)NC(=O)[C@H](C)NC1=O [Example 9.36]	86
